# Test system: M. tuberculosis H37Rv
# test-method-notes: Resazurin MIC assay, pan-sensitive strain
# Format: cell-based
# particulars: Mycobacterium tuberculosis, H37RV, 48 h; Table 2; Resazurin MIC assay; […]; read-out: MIC H37Rv
reported-property: MIC (µg/mL)
Return type: number; implicit unit µg/mL.

# count of solved cases: 3
{"columns": ["molecule", "readout-units", "MIC"],
 "data": [
  ["O=C1Nc2ccc(F)cc2C1=NNC(=O)c1ccncc1 [Compound 3b, reference compound]", "µg/mL", 10],
  ["O=C(NN=C1C(=O)N(c2ccccc2)c2ccccc21)c1ccc([N+](=O)[O-])o1", "µg/mL", 5],
  ["O=C1Nc2ccc(Cl)cc2C1=NNC(=O)c1ccncc1", "µg/mL", 1.25]
]}

Look up MIC for this molecule: O=C1Nc2ccc([N+](=O)[O-])cc2C1=NNC(=O)c1ccncc1
0.156

Look up MIC for this molecule: NNC(=O)c1ccncc1 [Isoniazid, reference compound]
0.063

====

# Test system: M. tuberculosis H37Rv
# test-method-notes: Resazurin MIC assay, pan-sensitive strain
# Assay type: cell-based
# particulars: Mycobacterium tuberculosis, H37RV, 48 h; Table 2; Resazurin MIC assay; […]; read-out: MIC H37Rv
reported-property: log10 of MIC (log10 of the value in mg/L)
Hello, just confirming the data are log10 of MIC with units of mg/L.

Look up log10 of MIC for this compound: O=C(NN=C1C(=O)N(Cc2ccccc2)c2ccc(F)cc21)c1ccc([N+](=O)[O-])o1
-0.81

Look up log10 of MIC for this compound: Cc1ccc2c(c1)C(=NNC(=O)c1ccc([N+](=O)[O-])o1)C(=O)N2Cc1ccccc1
0.10

Look up log10 of MIC for this compound: O=C(NN=C1C(=O)N(Cc2ccccc2)c2ccccc21)c1ccc([N+](=O)[O-])o1
-0.81

Look up log10 of MIC for this compound: O=C(NN=C1C(=O)N(Cc2ccccc2)c2ccc(Cl)cc21)c1ccc([N+](=O)[O-])o1
-0.51

====

# System: M. tuberculosis H37Rv
# test-method-notes: Resazurin MIC assay, pan-sensitive strain
# Type: cell-based
# particulars: Mycobacterium tuberculosis, 48 h; Table 3; standard test strain H37Rv; read-out: MIC Value (µg/ml) H37Rv*
reported-property: MIC (µg/mL)
Return type: number; implicit unit µg/mL.

# count of solved cases: 3
{"columns": ["compound", "value"],
 "data": [
  ["CO[C@H]1/C=C/O[C@@]2(C)Oc3c(C)c(O)c4c(O)c(c(/C=N/N5CCN(C)CC5)c(O)c4c3C2=O)NC(=O)/C(C)=C\\C=C\\[C@H](C)[C@H](O)[C@@H](C)[C@@H](O)[C@@H](C)[C@H](OC(C)=O)[C@@H]1C [Rifampin, reference compound]", 0.0125],
  ["NNC(=O)c1ccncc1 [Isoniazid, reference compound]", 0.063],
  ["O=C1Nc2ccc(Cl)cc2C1=NNC(=O)c1ccncc1", 1.25]
]}

Look up MIC for this compound: O=C1Nc2ccc(OC(F)(F)F)cc2C1=NNC(=O)c1ccc([N+](=O)[O-])o1
2.5

Look up MIC for this compound: O=C(NN=C1C(=O)N(Cc2ccccc2)c2ccccc21)c1ccc([N+](=O)[O-])o1
0.156

Look up MIC for this compound: O=C1Nc2ccc([N+](=O)[O-])cc2C1=NNC(=O)c1ccncc1
0.156
